Listed compounds paired with reported viability at 72 h, 2 µM
assay: Cytotoxicity against African green monkey Vero E6 cells assessed as cell viability at 2 uM measured after 72 hrs by MTT assay relative to control; assay type: toxicity, cell-based, Vero C1008; conditions: chlorocebus sabaeus, read-out: Activity
Please reply with the bare figure in % and do not write the unit itself.

structuresmiles=COc1ccc(S(=O)(=O)Nc2ccccc2C(=O)Nc2nc3ccccc3[nH]2)cc1 resultvalue=33.5

## Task What value of measured viability at 72 h, 2 µM is listed for `O=C(CNS(=O)(=O)c1ccc(F)cc1)Nc1nc2ccccc2s1` ?
## Result 95.6

## Task Another compound to check: `COc1ccc(OC)c(S(=O)(=O)NCC(=O)Nc2nc3ccccc3s2)c1`
## Result 112

## Task Another compound to check: `COc1cc(Cl)ccc1S(=O)(=O)Nc1ccc(C(=O)Nc2nc3ccccc3s2)cc1`
## Result 44

## Task Another compound to check: `O=C(Nc1nc2ccccc2s1)c1ccc(NS(=O)(=O)c2ccc([N+](=O)[O-])cc2)cc1`
## Result 101

## Task Another compound to check: `COc1ccc(S(=O)(=O)Nc2ccc(C(=O)Nc3nc4ccccc4[nH]3)cc2)cc1`
## Result 93.1

## Task Another compound to check: `CC(=O)Nc1ccc(S(=O)(=O)Nc2ccc(C(=O)Nc3nc4ccccc4s3)cc2)cc1`
## Result 98.1

* * *

Listed compounds paired with reported viability at 72 h, 10 µM
assay: Cytotoxicity against African green monkey Vero E6 cells assessed as cell viability at 10 uM measured after 72 hrs by MTT assay relative to control; assay type: toxicity, cell-based, Vero C1008; details: chlorocebus sabaeus, read-out: Activity

Use these answered entries as a reference point.
structuresmiles=O=C(Nc1nc2ccccc2s1)c1ccc(NS(=O)(=O)c2ccccc2)cc1 quantityname="viability at 72 h, 10 µM" resultvalue=17.7%
structuresmiles=O=C(Nc1nc2ccccc2s1)c1ccc(NS(=O)(=O)c2ccc(Br)cc2)cc1 quantityname="viability at 72 h, 10 µM" resultvalue=22.7%

## Task What value of measured viability at 72 h, 10 µM is listed for `COc1ccc(S(=O)(=O)Nc2ccc(C(=O)Nc3nccs3)cc2)cc1` ?
## Result 98.9%

## Task Another compound to check: `O=C(Nc1nc2ccccc2s1)c1ccc(NS(=O)(=O)c2ccc(F)cc2)cc1`
## Result 40.4%

## Task Another compound to check: `COc1ccc(S(=O)(=O)Nc2ccc(C(=O)Nc3nc4ccccc4s3)cc2)cc1`
## Result 94.8%

## Task Another compound to check: `O=C(CNS(=O)(=O)c1ccc(F)cc1)Nc1nc2ccccc2s1`
## Result 26.5%

## Task Another compound to check: `O=C(Nc1nc2ccccc2s1)c1ccc(NC(=S)Nc2ccccc2)cc1`
## Result 29%

## Task Another compound to check: `CC(C)(C)OC(=O)NCC(=O)Nc1nc2ccccc2s1`
## Result 60.1%

## Task Another compound to check: `Cc1ccc(S(=O)(=O)Nc2ccc(C(=O)Nc3nc4ccccc4s3)cc2)cc1`
## Result 19.5%

## Task Another compound to check: `CC(=O)Nc1ccc(S(=O)(=O)Nc2ccc(C(=O)Nc3nc4ccccc4s3)cc2)cc1`
## Result 72.3%

## Task Another compound to check: `COc1cc(Cl)ccc1S(=O)(=O)Nc1ccc(C(=O)Nc2nc3ccccc3s2)cc1`
## Result 17.5%

## Task Another compound to check: `COc1ccc(S(=O)(=O)Nc2ccc(C(=O)Nc3nc4ccccc4[nH]3)cc2)cc1`
## Result 25.9%

## Task Another compound to check: `COc1ccc(S(=O)(=O)Nc2cccc(C(=O)Nc3nc4ccccc4s3)c2)cc1`
## Result 17.7%

## Task Another compound to check: `COc1ccc(S(=O)(=O)Nc2ccccc2C(=O)Nc2nccs2)cc1`
## Result 34.8%

## Task Another compound to check: `O=C(Nc1nc2ccccc2s1)c1ccc(NS(=O)(=O)c2ccc([N+](=O)[O-])cc2)cc1`
## Result 99.7%

* * *

Listed compounds paired with reported selectivity ratio
test: Selectivity index, ratio of CC50 for cytotoxicity against African green monkey Vero E6 cells to EC50 for antiviral activity against Zika virus PE243 infected in African green monkey Vero E6 cells; format: toxicity, cell-based, Vero C1008; conditions: read-out: Ratio CC50/EC50
Please reply with the number alone, leaving off any unit.

structuresmiles=CC(C)(C)OC(=O)NCC(=O)Nc1nc2ccccc2s1 quantityname="selectivity ratio" resultvalue=4.7

## Task What value of measured selectivity ratio is listed for `COc1ccc(S(=O)(=O)Nc2ccc(C(=O)Nc3nc4ccccc4s3)cc2)cc1` ?
## Result 1.2

## Task Another compound to check: `COc1ccc(S(=O)(=O)Nc2ccccc2C(=O)Nc2nc3ccccc3[nH]2)cc1`
## Result 1.7

* * *

assay: Selectivity index, ratio of CC50 for cytotoxicity against African green monkey Vero E6 cells to EC50 for antiviral activity against Zika virus PE243 infected in African green monkey Vero E6 cells; assay type: toxicity, cell-based, Vero C1008; settings: read-out: Ratio CC50/EC50
Listed compounds paired with reported selectivity ratio
Please reply with the number alone, leaving off any unit.

structuresmiles=COc1ccc(S(=O)(=O)Nc2ccccc2C(=O)Nc2nccs2)cc1 resultvalue=7.7

## Task What value of measured selectivity ratio is listed for `COc1cc(Cl)ccc1S(=O)(=O)Nc1ccc(C(=O)Nc2nc3ccccc3s2)cc1` ?
## Result 2.2

## Task Another compound to check: `COc1ccc(S(=O)(=O)Nc2cccc(C(=O)Nc3nc4ccccc4s3)c2)cc1`
## Result 25.1

## Task Another compound to check: `O=C(Nc1nc2ccccc2s1)c1ccc(NS(=O)(=O)c2ccc(Br)cc2)cc1`
## Result 9.2

## Task Another compound to check: `O=C(Nc1nc2ccccc2s1)c1ccc(NS(=O)(=O)c2ccc([N+](=O)[O-])cc2)cc1`
## Result 4

* * *

Listed molecules paired with reported pIC50
experiment: Inhibition of Zika virus BeH823339 NS2B protease (49 to 95 residues) R96A mutant/NS3 protease (1 to 170 residues) R29G/ C80S/C143S mutant expressed in Escherichia coli BL21 (DE3) cells using Bz-Nle-Lys-Lys-Arg-AMC as a fluorogenic substrate preincubated with enzyme for 10 mins by fluorescence-based analysis
Note: pIC50 values are expressed as the negative base-10 logarithm of concentration in M.

Use these answered entries as a reference point.
structuresmiles=COc1ccc(S(=O)(=O)Nc2ccccc2C(=O)Nc2nc3ccccc3s2)cc1 resultvalue=4.62
structuresmiles=COc1ccc(OC)c(S(=O)(=O)NCC(=O)Nc2nc3ccccc3s2)c1 resultvalue=4.62
structuresmiles=COc1ccc(S(=O)(=O)Nc2ccccc2C(=O)Nc2nccs2)cc1 resultvalue=4.59
structuresmiles=COc1ccc(S(=O)(=O)Nc2ccccc2C(=O)Nc2nc3ccccc3[nH]2)cc1 resultvalue=5.10

## Task What value of measured pIC50 is listed for `O=C(Nc1nc2ccccc2s1)c1ccc(NC(=S)Nc2ccccc2)cc1` ?
## Result 5.10

* * *

experiment: Cytotoxicity against African green monkey Vero E6 cells assessed as cell viability at 2 uM measured after 72 hrs by MTT assay relative to control; format: toxicity, cell-based, Vero C1008; settings: chlorocebus sabaeus, read-out: Activity
Listed compounds paired with reported viability at 72 h, 2 µM
Please reply with the bare figure in % and do not write the unit itself.

structuresmiles=COc1ccc(S(=O)(=O)Nc2ccc(C(=O)Nc3nc4ccccc4s3)cc2)cc1 unitstext=% resultvalue=88.7
structuresmiles=COc1ccc(S(=O)(=O)Nc2ccccc2C(=O)Nc2nccs2)cc1 unitstext=% resultvalue=36.2

Next compound, viability at 72 h, 2 µM to be filled in.
## Task What value of measured viability at 72 h, 2 µM is listed for `COc1ccc(S(=O)(=O)Nc2ccccc2C(=O)Nc2nc3ccccc3s2)cc1` ?
## Result 98.5

* * *

assay: Cytotoxicity against African green monkey Vero E6 cells assessed as cell viability at 10 uM measured after 72 hrs by MTT assay relative to control; format: toxicity, cell-based, Vero C1008; conditions: chlorocebus sabaeus, read-out: Activity
quantityName: viability at 72 h, 10 µM (%)
Please reply with the bare figure in % and do not write the unit itself.

structuresmiles=COc1ccc(S(=O)(=O)NCC(=O)Nc2nc3ccccc3s2)cc1 unitstext=% resultvalue=82.7

## Task What value of measured viability at 72 h, 10 µM is listed for `COc1ccc(OC)c(S(=O)(=O)NCC(=O)Nc2nc3ccccc3s2)c1` ?
## Result 102

## Task Another molecule to check: `Cc1ccc(S(=O)(=O)NCC(=O)Nc2nc3ccccc3s2)cc1`
## Result 74.4

## Task Another molecule to check: `COc1ccc(S(=O)(=O)Nc2ccccc2C(=O)Nc2nc3ccccc3[nH]2)cc1`
## Result 19.9

## Task Another molecule to check: `COc1ccc(S(=O)(=O)Nc2ccccc2C(=O)Nc2nc3ccccc3s2)cc1`
## Result 104

Data provenance is ChEMBL document CHEMBL5390225.
